Test details: activity coefficient (dimensionless); of the first substance listed, at infinite dilution; xn = mol fraction of the nth substance listed
Experimental setup: 308.15 K; Liquid; Chromatography; x1 = 0
Recorded endpoint: activity coefficient
Please reply with the number alone, leaving off any unit.

Here's what some known entries look like.
## Input Report measured activity coefficient; entry is C1CCCCCC1 [cycloheptane] + CCCCCCCCCCCCCC[P+](CCCCCC)(CCCCCC)CCCCCC.O=S(=O)([N-]S(=O)(=O)C(F)(F)F)C(F)(F)F
## Output 0.787

## Input Report measured activity coefficient; entry is C1CCCCC1 [cyclohexane] + CCCCCCCCCCCCCC[P+](CCCCCC)(CCCCCC)CCCCCC.[Cl-]
## Output 0.631

## Input Report measured activity coefficient; entry is CO [methanol] + CCCCCCCCCCCCCC[P+](CCCCCC)(CCCCCC)CCCCCC.O=S(=O)([N-]S(=O)(=O)C(F)(F)F)C(F)(F)F
## Output 0.942

New cases:
## Input Report measured activity coefficient; entry is C1CCCCC1 [cyclohexane] + CCCCCCCCCCCCCC[P+](CCCCCC)(CCCCCC)CCCCCC.O=S(=O)([N-]S(=O)(=O)C(F)(F)F)C(F)(F)F
## Output 0.612

====

Test details: activity coefficient (dimensionless); of the first substance listed, at infinite dilution; xn = mol fraction of the nth substance listed
Experimental setup: 318.15 K; Liquid; Chromatography; x1 = 0
# cutoff 0.5 applies to activity coefficient; >= gives 1, < gives 0

## Input Given C#CCCCCCC [1-octyne] + CCCCCCCCCCCCCC[P+](CCCCCC)(CCCCCC)CCCCCC.F[B-](F)(F)F , state whether its activity coefficient is at least 0.5.
## Output 0

## Input Given C=CCCCCC [1-heptene] + CCCCCCCCCCCCCC[P+](CCCCCC)(CCCCCC)CCCCCC.O=S(=O)([N-]S(=O)(=O)C(F)(F)F)C(F)(F)F , state whether its activity coefficient is at least 0.5.
## Output 1

## Input Given CCO [ethanol] + CCCCCCCCCCCCCC[P+](CCCCCC)(CCCCCC)CCCCCC.O=S(=O)([N-]S(=O)(=O)C(F)(F)F)C(F)(F)F , state whether its activity coefficient is at least 0.5.
## Output 1

## Input Given C=CCCCCC [1-heptene] + CCCCCCCCCCCCCC[P+](CCCCCC)(CCCCCC)CCCCCC.[Cl-] , state whether its activity coefficient is at least 0.5.
## Output 1

## Input Given c1ccccc1 [benzene] + CCCCCCCCCCCCCC[P+](CCCCCC)(CCCCCC)CCCCCC.O=S(=O)([N-]S(=O)(=O)C(F)(F)F)C(F)(F)F , state whether its activity coefficient is at least 0.5.
## Output 0

## Input Given C1CCCCC1 [cyclohexane] + CCCCCCCCCCCCCC[P+](CCCCCC)(CCCCCC)CCCCCC.O=S(=O)([N-]S(=O)(=O)C(F)(F)F)C(F)(F)F , state whether its activity coefficient is at least 0.5.
## Output 1

Shift focus to the following entry.
## Input Given C#CCCCC [1-hexyne] + CCCCCCCCCCCCCC[P+](CCCCCC)(CCCCCC)CCCCCC.[Cl-] , state whether its activity coefficient is at least 0.5.
## Output 0

====

Test details: activity coefficient (dimensionless); of the first substance listed, at infinite dilution; xn = mol fraction of the nth substance listed
Experimental setup: 308.15 K; Liquid; Chromatography; x1 = 0
# cutoff 0.6 applies to activity coefficient; >= gives class 1, < gives class 0

For orientation, consider the following solved cases.
## Input Given CCCCCCCC [octane] + CCCCCCCCCCCCCC[P+](CCCCCC)(CCCCCC)CCCCCC.F[B-](F)(F)F , state whether its activity coefficient is at least 0.6.
## Output class 1

## Input Given c1ccccc1 [benzene] + CCCCCCCCCCCCCC[P+](CCCCCC)(CCCCCC)CCCCCC.O=S(=O)([N-]S(=O)(=O)C(F)(F)F)C(F)(F)F , state whether its activity coefficient is at least 0.6.
## Output class 0

## Input Given C1CCCC1 [cyclopentane] + CCCCCCCCCCCCCC[P+](CCCCCC)(CCCCCC)CCCCCC.F[B-](F)(F)F , state whether its activity coefficient is at least 0.6.
## Output class 1

## Input Given CCCCCCCC [octane] + CCCCCCCCCCCCCC[P+](CCCCCC)(CCCCCC)CCCCCC.O=S(=O)([N-]S(=O)(=O)C(F)(F)F)C(F)(F)F , state whether its activity coefficient is at least 0.6.
## Output class 1

## Input Given C=CCCCCCC [oct-1-ene] + CCCCCCCCCCCCCC[P+](CCCCCC)(CCCCCC)CCCCCC.[Cl-] , state whether its activity coefficient is at least 0.6.
## Output class 0

Shift focus to the following entry.
## Input Given C#CCCCCCC [1-octyne] + CCCCCCCCCCCCCC[P+](CCCCCC)(CCCCCC)CCCCCC.F[B-](F)(F)F , state whether its activity coefficient is at least 0.6.
## Output class 0

====

activity coefficient: recorded values
Test details: activity coefficient (dimensionless); of the first substance listed, at infinite dilution; xn = mol fraction of the nth substance listed
Experimental setup: 318.15 K; Liquid; Chromatography; x1 = 0
Please reply with the number alone, leaving off any unit.

Here's what some known entries look like.
## Input Report measured activity coefficient; entry is C1CCCCC1 [cyclohexane] + CCCCCCCCCCCCCC[P+](CCCCCC)(CCCCCC)CCCCCC.[Cl-]
## Output 0.627

## Input Report measured activity coefficient; entry is CCO [ethanol] + CCCCCCCCCCCCCC[P+](CCCCCC)(CCCCCC)CCCCCC.[Cl-]
## Output 0.737

## Input Report measured activity coefficient; entry is CCCCCCCC [octane] + CCCCCCCCCCCCCC[P+](CCCCCC)(CCCCCC)CCCCCC.O=S(=O)([N-]S(=O)(=O)C(F)(F)F)C(F)(F)F
## Output 0.825

New cases:
## Input Report measured activity coefficient; entry is C=CCCCCCC [oct-1-ene] + CCCCCCCCCCCCCC[P+](CCCCCC)(CCCCCC)CCCCCC.F[B-](F)(F)F
## Output 0.748

====

Test details: activity coefficient (dimensionless); of the first substance listed, at infinite dilution; xn = mol fraction of the nth substance listed
Experimental setup: 308.15 K; Liquid; Chromatography; x1 = 0
# cutoff 0.8 applies to activity coefficient; >= gives 1.0, < gives 0.0

## Input Given C1CCCCCC1 [cycloheptane] + CCCCCCCCCCCCCC[P+](CCCCCC)(CCCCCC)CCCCCC.F[B-](F)(F)F , state whether its activity coefficient is at least 0.8.
## Output 1.0

## Input Given C1CCCCCC1 [cycloheptane] + CCCCCCCCCCCCCC[P+](CCCCCC)(CCCCCC)CCCCCC.[Cl-] , state whether its activity coefficient is at least 0.8.
## Output 1.0

## Input Given C#CCCCCC [1-heptyne] + CCCCCCCCCCCCCC[P+](CCCCCC)(CCCCCC)CCCCCC.[Cl-] , state whether its activity coefficient is at least 0.8.
## Output 0.0

## Input Given CCCCC [pentane] + CCCCCCCCCCCCCC[P+](CCCCCC)(CCCCCC)CCCCCC.O=S(=O)([N-]S(=O)(=O)C(F)(F)F)C(F)(F)F , state whether its activity coefficient is at least 0.8.
## Output 0.0

New cases:
## Input Given C=CCCCCC [1-heptene] + CCCCCCCCCCCCCC[P+](CCCCCC)(CCCCCC)CCCCCC.F[B-](F)(F)F , state whether its activity coefficient is at least 0.8.
## Output 0.0

## Input Given C#CCCCCC [1-heptyne] + CCCCCCCCCCCCCC[P+](CCCCCC)(CCCCCC)CCCCCC.O=S(=O)([N-]S(=O)(=O)C(F)(F)F)C(F)(F)F , state whether its activity coefficient is at least 0.8.
## Output 0.0

## Input Given CCCCC [pentane] + CCCCCCCCCCCCCC[P+](CCCCCC)(CCCCCC)CCCCCC.F[B-](F)(F)F , state whether its activity coefficient is at least 0.8.
## Output 0.0

## Input Given CCCCCCCC [octane] + CCCCCCCCCCCCCC[P+](CCCCCC)(CCCCCC)CCCCCC.[Cl-] , state whether its activity coefficient is at least 0.8.
## Output 1.0

## Input Given C=CCCCCC [1-heptene] + CCCCCCCCCCCCCC[P+](CCCCCC)(CCCCCC)CCCCCC.O=S(=O)([N-]S(=O)(=O)C(F)(F)F)C(F)(F)F , state whether its activity coefficient is at least 0.8.
## Output 0.0

## Input Given C=CCCCC [hex-1-ene] + CCCCCCCCCCCCCC[P+](CCCCCC)(CCCCCC)CCCCCC.[Cl-] , state whether its activity coefficient is at least 0.8.
## Output 0.0

## Input Given CCCCC [pentane] + CCCCCCCCCCCCCC[P+](CCCCCC)(CCCCCC)CCCCCC.[Cl-] , state whether its activity coefficient is at least 0.8.
## Output 0.0

Where do these numbers come from? They come from the NIST ThermoML archive (doi:10.1021/je0602925).
